Test system: HL-60 leukemia cells carrying no MLL fusion
ASSAY PROTOCOL: cell viability assay (WST-8), HL-60
Assay type: cell-based
CONDITION SET: Homo sapiens, HL-60, 96 h, 4 days treatment; read-out: Cell Growth Inhibition IC50 (μM) HL-60
Starred links: 1 amine or outer side, 2 acyl side, 3 side chain; linkers in the order of their positions; H or OH if unused. Positions of bridges follow the written chain, without caps; N, C: chain ends. Non-standard residues stand in square brackets, D forms with d. Residues, ends and D or L forms follow the SMILES beside them. *: point of attachment. dαMeDab = C[C@](CCN[*:3])(N[*:1])C(=O)[*:2]; Arg(Me) = CNC(=N)NCCC[C@H](N)C(=O)O; d(αMeOrn) = C[C@@](N)(CCCN)C(=O)O; dPhg = N[C@@H](C(=O)O)c1ccccc1; Isobutyryl = CC(C)C(=O)*; Abu = CC[C@H](N)C(=O)O
MEASURED ATTRIBUTE: IC50 (µM)

[P] CC[C@@H]1NC(=O)[C@H](CCCNC(=N)NC)NC(=O)[C@](C)(NC(=O)C(C)C)CCNC(=O)[C@@H](c2ccccc2)NC1=O [Cpd. No. 5] (Isobutyryl-[dαMeDab][Arg(Me)][Abu][dPhg]; lactam 1-C)
[Q] CC[C@@H]1NC(=O)[C@H](CCCNC(=N)N)NC(=O)[C@](C)(NC(=O)C(C)C)CCCNC(=O)[C@@H](c2ccccc2)NC1=O [Cpd. No. 74] (Isobutyryl-[d(αMeOrn)]R[Abu][dPhg]; lactam 1-C)
[R] CC[C@@H]1NC(=O)[C@H](CCCNC(=N)N)NC(=O)[C@](C)(NC(=O)C(C)C)CCNC(=O)[C@@H](c2ccccc2)NC1=O [Cpd. No. 4] (Isobutyryl-[dαMeDab]R[Abu][dPhg]; lactam 1-C)
-- ask Which order do the above compounds take when sorted by rising IC50? Smallest first. Respond with an ordered listing of the labels, as requested.
-- reply P, R, Q
(P: 8.6 µM, R: 17.4 µM, Q: 46.8 µM)

# credit: patent US20210130401A1
